- ASSAY REMARKS: Cmax in neutropenic ICR mouse infected with Staphylococcus aureus ATCC 29213 at 6.25 mg/kg, sc by HPLC
- Type: ADME, organism-based
- Set-up: dose 6.25 mg/kg, route subcutaneous
- DETAILS: in vivo

| STRUCTURE | Cmax, ng/mL |
| --- | --- |
| CN(C)c1cc(NC(=O)CNC(C)(C)C)c(O)c2c1C[C@H]1C[C@H]3[C@H](N(C)C)C(O)=C(C(N)=O)C(=O)[C@@]3(O)C(O)=C1C2=O | 1680 |

----------
- ASSAY REMARKS: AUC in neutropenic ICR mouse infected with Staphylococcus aureus ATCC 29213 at 6.25 to 50 mg/kg, sc
- Type: ADME, organism-based
- Set-up: dose 6.25-50 mg/kg, route subcutaneous
- DETAILS: plasma
OUTCOME MEASURE: AUC (ng·h/mL)

| COMPOUND | TEST VALUE |
| --- | --- |
| CN(C)c1cc(NC(=O)CNC(C)(C)C)c(O)c2c1C[C@H]1C[C@H]3[C@H](N(C)C)C(O)=C(C(N)=O)C(=O)[C@@]3(O)C(O)=C1C2=O [TIGECYCLINE] | 1200 |

----------
- ASSAY REMARKS: AUC (0 to 24 hrs) in neutropenic ICR mouse infected with Staphylococcus aureus ATCC 29213 at 25 mg/kg, sc by HPLC
- Format: ADME, organism-based
- Parameters: time < 24 hr, dose 25 mg/kg, route subcutaneous
- DETAILS: plasma

| STRUCTURE | AUC(0-t) at 24 h |
| --- | --- |
| CN(C)c1cc(NC(=O)CNC(C)(C)C)c(O)c2c1C[C@H]1C[C@H]3[C@H](N(C)C)C(O)=C(C(N)=O)C(=O)[C@@]3(O)C(O)=C1C2=O | 25200 ng·h/mL |

----------
- ASSAY REMARKS: Plasma protein binding in human
- Type: ADME, cell-free
- DETAILS: read-out: PPB (converted)

| COMPOUND | fraction unbound |
| --- | --- |
| CN(C)c1cc(NC(=O)CNC(C)(C)C)c(O)c2c1C[C@H]1C[C@H]3[C@H](N(C)C)C(O)=C(C(N)=O)C(=O)[C@@]3(O)C(O)=C1C2=O [TIGECYCLINE] | 0.29 |

----------
- ASSAY REMARKS: Protein binding in methicillin-sensitive Staphylococcus aureus ATCC 29213-infected neutropenic ICR mouse serum at 1.5 µg/ml by HPLC
- DETAILS: read-out: PB (converted)
OUTCOME MEASURE: fraction unbound

| STRUCTURE | OUTCOME MEASURE | TEST VALUE |
| --- | --- | --- |
| CN(C)c1cc(NC(=O)CNC(C)(C)C)c(O)c2c1C[C@H]1C[C@H]3[C@H](N(C)C)C(O)=C(C(N)=O)C(=O)[C@@]3(O)C(O)=C1C2=O | fraction unbound | 0.173 |

----------
- ASSAY REMARKS: Protein binding in methicillin-sensitive Staphylococcus aureus ATCC 29213-infected neutropenic ICR mouse serum at 12.5 mg/kg, sc by HPLC
- Format: ADME, organism-based
- Set-up: dose 12.5 mg/kg, route subcutaneous
- DETAILS: read-out: PB (converted)

| STRUCTURE | fraction unbound |
| --- | --- |
| CN(C)c1cc(NC(=O)CNC(C)(C)C)c(O)c2c1C[C@H]1C[C@H]3[C@H](N(C)C)C(O)=C(C(N)=O)C(=O)[C@@]3(O)C(O)=C1C2=O | 0.121 |
